Quick list: Amount of tissue at the end of the preculture II stage per entry.
Test system: loblolly pine lines LP1 and LP3
experiment notes: Effect of galactose and galactose-containing sugars during proliferation and prematuration on SE yield
Format: cell-based, Pinus taeda (loblolly pine)
Design: unit not given here
condition notes: line LP1; 1% sucrose, 1.5% maltose, 1.5% lactose or 0.75% galactose
Answer using only a numeral; do not append any unit.

Amount of tissue at the end of the preculture II stage for OC[C@H]1O[C@@H](O[C@H]2[C@H](O)[C@@H](O)C(O)O[C@@H]2CO)[C@H](O)[C@@H](O)[C@H]1O (stereo partly shown) ?
28.9

Entry `OC[C@H]1O[C@@](CO)(O[C@H]2O[C@H](CO)[C@@H](O)[C@H](O)[C@H]2O)[C@@H](O)[C@@H]1O` please
121.22

Follow-up item: `O=C[C@H](O)[C@@H](O)[C@@H](O)[C@H](O)CO`
59.45

New cases:
Amount of tissue at the end of the preculture II stage for `OC[C@H]1O[C@H](O[C@H]2[C@H](O)[C@@H](O)[C@H](O)O[C@@H]2CO)[C@H](O)[C@@H](O)[C@@H]1O` ?
232.18
